test: chemical genetic growth profiling, strain panel (AID 1159580);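 further: tested at 20 µM; growth read once vehicle control cultures reached saturation at 30 °C; 1 = growth at the plate median or of vehicle wells; lower values mean less growth of the strain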; details: S. cerevisiae deletion strains, growth OD, locus YNL006W, strain LST8, hits give low values
Hit rate of the full screen: of about 5,500 compounds, about 2,000 (36%) were called active. Roughly 18% stayed inconclusive and do not appear here. The list shows a part of the results.
Listed compounds paired with reported normalized growth
Provide a numeric answer; units are not to be included.

Some compounds with known normalized growth results, for comparison:
compound	data.value
Cc1c(Cc2ccc(F)cc2)c(=O)oc2cc(O)ccc12	0.975
S=C(Nc1ccc(Cl)cc1Cl)N(c1cccc(Cl)c1)c1nc2ccccc2s1	0.955
O=C(NNc1ccccc1F)c1ccno1	0.993
COc1cc(NC(=S)NC(=O)c2ccccc2)c(OC)cc1Cl	0.991
CC(=O)CSc1nnc(-c2ccc(C(C)(C)C)cc2)n1-c1ccc(Cl)cc1	0.98
O=S(=O)(Nc1cccc(CCc2ccccn2)c1)c1cc(Cl)c(Cl)cc1Cl	0.992

The recorded normalized growth for O=c1c(Sc2ccc(Cl)cc2)c(Sc2ccc(Cl)cc2)c1=O is 0.45

The recorded normalized growth for Cc1ccc2nc(-c3ccc(Cl)cc3)cn2c1 is 0.962

The recorded normalized growth for COc1cc(NC(=S)NNS(=O)(=O)c2ccc(C)cc2)c(OC)cc1Cl is 0.986

The recorded normalized growth for COc1cc2c(cc1OC)C(C)N(C(=O)c1sc3ccccc3c1Cl)CC2 (stereo not drawn) is 0.99

The recorded normalized growth for N#CC(C#N)=C(SCc1c(Cl)cccc1Cl)SCc1c(Cl)cccc1Cl is 0.997

The recorded normalized growth for COc1ccc(NNC(=O)c2sc3ccccc3c2Cl)cc1 is 0.914

The recorded normalized growth for COc1cc(NC(=S)N(C)C)c(OC)cc1Cl is 0.984

The recorded normalized growth for Cc1nnsc1C(=O)Nc1cc(C(F)(F)F)cc(C(F)(F)F)c1 is 0.964

The recorded normalized growth for Cc1ccccc1C(=O)Oc1ccc(C(F)(F)F)cc1[N+](=O)[O-] is 0.977

The recorded normalized growth for Cc1nnsc1C(=O)NNc1ccc(F)cc1F is 0.975

The recorded normalized growth for Cc1nnsc1C(=O)NNc1c(Cl)cccc1Cl is 0.993

----------
assay: chemical genetic growth profiling, strain panel (AID 1159580);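 further: tested at 20 µM; growth read once vehicle control cultures reached saturation at 30 °C; 1 = growth at the plate median or of vehicle wells; lower values mean less growth of the strain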; settings: S. cerevisiae deletion strains, growth OD, locus YKL190W, strain CNB1
The campaign covered roughly 5,500 compounds. About 2,000 (36%) were called active. Roughly 18% stayed inconclusive and do not appear here. Cut-off read from the data, not from the text of the source: active = normalized growth mostly below about 0.91 (no sharp cut-off); inconclusive = no clear call, values can overlap the other calls; inactive = mostly above about 0.92. Some of the results follow.
Mark one answer only. Choices: active, inactive

compound	category
CC1=C(C(C)O)C2=NC1C=c1[nH]c(c(C)c1C(C)O)=Cc1[nH]c(c(CCC(=O)O)c1C)C=c1[nH]c(c(C)c1CCC(=O)O)=C2 (stereo not drawn)	inactive

Next, consider the following compound.
Task: Identify the outcome logged in this assay for the compound shown: NCC1CCC(C(=O)O)CC1 (stereo not drawn)
Output: inactive

----------
test: chemical genetic growth profiling, strain panel (AID 1159580);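 further: tested at 20 µM; growth read once vehicle control cultures reached saturation at 30 °C; 1 = growth at the plate median or of vehicle wells; lower values mean less growth of the strain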; conditions: S. cerevisiae deletion strains, growth OD, locus YOR184W, strain ser1, hits give low values
The whole screen tested about 5,500 compounds, of which about 2,000 (36%) were called active. Not shown: some 18% with an inconclusive outcome. The list shows a part of the results.
Mark true (1) for normalized growth under 1, false (0) if at or over.

Known results for molecules:
molecule	category
CC(=O)OC(C)(C)[C@@H]1Cc2cc3ccc(=O)oc3cc2O1	true (1)
C=C1C2CC[C@H]3[C@]4(C)C[C@H](OC5OC(CO)C(OS(=O)(=O)O)C(OS(=O)(=O)O)C5OC(=O)CC(C)C)C[C@@H](C(=O)O)[C@H]4CC[C@]3(C2)[C@H]1O (some centres undefined)	true (1)
CC(C)(OC(=O)c1ccccc1)[C@@H]1Cc2cc3ccc(=O)oc3cc2O1	true (1)

Next, consider the following molecule.
Task: Report whether reported normalized growth is lower than 1 (strictly) for CC1=C(/C=C/C(C)=C/C=C/C(C)=C/C=C/C=C(C)/C=C/C=C(C)/C=C/C23OC2(C)CC(O)CC3(C)C)C(C)(C)CC(O)C1 (centres undefined)
Output: false (0)

All values here come from PubChem BioAssay AID1159580.
